Each entry below lists one item and its recorded protein stability index value.
B1: EDARADD (parent)
chain: VEKVLRRWVDEEWPKRERGDPSRH

Variants of: B1
assay explanation: protein stability index of a GFP-peptide fusion (GPS, HEK-293T) (PSI 1-6); higher = more stable;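 note: lentivirally expressed fusions sorted by FACS into six bins by GFP to DsRed ratio, PSI derived from sequencing read proportions per bin multiplied by bin number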
measurement parameters: c terminus: a fixed tail appended
assay endpoint: protein stability index

INSERT INTO assay_data (residue_change, assay_endpoint, readout_value) VALUES
  ('V4E', 'protein stability index', 4.41),
  ('R23C', 'protein stability index', 3),
  ('E11Y', 'protein stability index', 2.09),
  ('E12I', 'protein stability index', 2.06),
  ('W8G', 'protein stability index', 4.8),
  ('E12G', 'protein stability index', 2.81),
  ('V1I', 'protein stability index', 2.2),
  ('V9N', 'protein stability index', 3.59),
  ('K15L', 'protein stability index', 2.41),
  ('R18F', 'protein stability index', 2.5),
  ('G19M', 'protein stability index', 2.54);

The reported measurements were obtained from the supplement of paper PMC10567573.
